Origin of values: patent US20060183194A1

Each entry below carries its recorded EC50.
Tested On: T1, ErbB-3 receptor-Ig fusion (human, UniProt P21860 20-643)
T1 construct: extracellular domain;range 224-C-terminus; also called ErbB-3-Ig; 3/3 homodimer; not shown: human IgG heavy chain constant region from His224 (hinge) on
T1 sequence (P21860 other isoform, or with tags, fused parts or gaps): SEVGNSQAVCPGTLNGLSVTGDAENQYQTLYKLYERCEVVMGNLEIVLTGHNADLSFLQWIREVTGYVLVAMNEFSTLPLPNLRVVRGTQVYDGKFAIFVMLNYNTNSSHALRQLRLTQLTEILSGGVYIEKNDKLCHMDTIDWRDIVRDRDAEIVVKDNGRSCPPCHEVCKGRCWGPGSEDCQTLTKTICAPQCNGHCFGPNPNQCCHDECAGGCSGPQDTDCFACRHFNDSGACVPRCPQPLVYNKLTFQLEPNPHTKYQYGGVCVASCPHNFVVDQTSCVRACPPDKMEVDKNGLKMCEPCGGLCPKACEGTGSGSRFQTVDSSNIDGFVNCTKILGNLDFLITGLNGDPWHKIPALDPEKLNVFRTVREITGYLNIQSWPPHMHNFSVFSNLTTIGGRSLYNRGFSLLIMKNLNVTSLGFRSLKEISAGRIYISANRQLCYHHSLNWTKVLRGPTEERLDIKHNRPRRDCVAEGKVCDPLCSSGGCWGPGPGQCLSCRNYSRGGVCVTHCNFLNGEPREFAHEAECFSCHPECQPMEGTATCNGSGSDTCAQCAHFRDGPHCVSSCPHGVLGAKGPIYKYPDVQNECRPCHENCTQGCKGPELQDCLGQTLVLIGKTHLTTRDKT
Procedure Details: displacement of 125I-HRG from plate-bound ErbB-3-Ig
Ends that are not written are not given here.
Write the number in nM without appending the unit.

soluble wild-type HRG-β1 EGF (HRG8, HRG-β1 177-228) (ligand, also called HRG8 (WT)) SHLVKCAEKEKTFCVNGGECFMVKDLSNPSRYLCKCPNEFTGDRCQNYVMAS :: 2.3
soluble HRG-β1 EGF variant F1 (ligand, also: three disulfide bonds, pairing not given here) SHLVKCAEKEKTFCVNGGECFKVKDLSNPSRYLCKCPNEFTGDRCQNYVIAS :: 0.6

-- ask Please report the recorded EC50 for soluble HRG-β1 EGF variant A3 (ligand, also: three disulfide bonds, pairing not given here) WELVPCAEKEKTFCVNGGECFMVKDLSNPSRYLCKCPNEFTGDRCQNYVMAS .
-- reply 4.3
